- Test target: T1, LIN7B, Q9HAP6
- T1 sequence (Q9HAP6 88-185, limits assumed, looked up): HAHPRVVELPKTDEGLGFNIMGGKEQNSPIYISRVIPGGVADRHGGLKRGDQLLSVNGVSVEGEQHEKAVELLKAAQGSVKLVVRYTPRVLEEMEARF
- Experimental details: holdup assay
- Parameters: key: below the threshold = too weak to quantify, mostly under pKd 3.1 to 4
- Test context: plain residues with an end cap or a label only (N-terminal biotin on a linker: ado-ado)
Measurement type: pKd
Answers are plain numbers.

Previously resolved entries follow.
• VKQYADVEGF [HNRNPK, P61978] = 3.61
• GQNMTVSVVI [PRLHR, P49683] = 3.79

Request: Which value of pKd has been reported for LPPPESESKV [KCNJ9, Q92806] in the records?
Response: 3.77
